Value source: patent US20130261133A1

- System: B. anthracis
- Type: cell-based
- testSettings: minimum inhibitory concentration
measuredAttribute: MIC B. anthracis

Examples with answers:
* C=C[C@@H](C#CC#C[C@@H](CCCCCCCCC)NS(C)(=O)=O)OC(C)=O | >1000
* C=C[C@@H](C#CC#C[C@@H](CCCCCCCCC)NC(=O)c1ccccc1)OC(C)=O | >1000

Reported MIC B. anthracis for C=C[C@@H](C#CC#C[C@H](O)CCCCCCCCCCCCCCC)OC(C)=O (stereo in doubt) : what is it? >1000
